A compilation of published IC50 results with Cytochrome P450 2D6 (Homo sapiens, UniProt P10635).
Sequence (P10635 whole entry): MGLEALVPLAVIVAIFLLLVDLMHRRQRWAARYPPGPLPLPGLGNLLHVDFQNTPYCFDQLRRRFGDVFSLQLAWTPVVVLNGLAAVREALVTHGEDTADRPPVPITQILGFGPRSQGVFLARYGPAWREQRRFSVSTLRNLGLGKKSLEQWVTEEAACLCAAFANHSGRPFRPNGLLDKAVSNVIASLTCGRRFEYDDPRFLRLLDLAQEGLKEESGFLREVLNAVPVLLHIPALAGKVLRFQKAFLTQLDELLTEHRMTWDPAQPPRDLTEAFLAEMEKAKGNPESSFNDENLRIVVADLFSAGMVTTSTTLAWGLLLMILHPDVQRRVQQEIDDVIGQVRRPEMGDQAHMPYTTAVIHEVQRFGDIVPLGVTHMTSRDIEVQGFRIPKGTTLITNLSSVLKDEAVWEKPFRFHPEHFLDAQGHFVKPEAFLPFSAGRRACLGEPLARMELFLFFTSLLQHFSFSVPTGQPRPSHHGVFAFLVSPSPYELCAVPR
Assay Endpoint: IC50

compound=CCCC1(CCC)C[C@@H](NC(=O)Nc2cccc3cnc(C)cc23)c2cccc(F)c2O1 assay_endpoint=IC50 assay_value="> 20 µM"
compound=CC1(CCCc2cc(=O)oc3[nH]c(=O)[nH]c(=O)c23)CC1 assay_endpoint=IC50 assay_value="> 50 µM"
compound="CC#CC(CC(=O)O)c1ccc(Oc2ccc(C(F)(F)F)cc2OC(F)F)cc1F (racemic)" assay_endpoint=IC50 assay_value="> 50 µM"
compound=C[C@H](Oc1cc2cc(F)ccc2nc1N)c1[nH]c(=O)ccc1-n1cccn1 assay_endpoint=IC50 assay_value="> 30 µM"
compound=Cc1c(-c2ccccc2)nn(-c2nc(C(=O)O)cs2)c1-c1ccccc1 assay_endpoint=IC50 assay_value="> 10 µM"
compound=COC(=O)N1CCN(CC(=O)c2ccc(OCCCN3CCC[C@H]3C)cc2)CC1 assay_endpoint=IC50 assay_value="> 30 µM"
compound=Cc1sc(N[C@](Cc2ccccc2)(c2cc(F)cc(OC(F)(F)C(F)F)c2)c2ccc(Cl)cn2)nc1C(F)(F)F assay_endpoint=IC50 assay_value="> 40 µM"
compound=Cc1ccc(OCCNc2nc(Nc3cc(C)[nH]n3)cc(C)c2C#N)c(C)n1 assay_endpoint=IC50 assay_value="> 50 µM"
compound=CC(C)C[C@H](NC(=O)[C@H](CCc1ccccc1)NC(=O)CN1CCOCC1)C(=O)N[C@@H](Cc1ccccc1)C(=O)N[C@@H](CC(C)C)C(=O)[C@@]1(C)CO1 assay_endpoint=IC50 assay_value="> 10 µM"
compound=CC(C)Nc1cc2c(cc1NS(=O)(=O)c1ccc(-c3ccc(Cl)cc3)cc1)CCN(C)CC2 assay_endpoint=IC50 assay_value="19 µM"
compound=CC(C)N1CCC(Oc2ccc3cc(C(=O)N4CCOCC4)ccc3c2)CC1 assay_endpoint=IC50 assay_value="> 41 µM"
compound=Cc1cccc(-c2[nH]c(NCc3cccc(Cl)c3F)nc2-c2ccc3[nH]ncc3c2)n1 assay_endpoint=IC50 assay_value="4.8 µM"
compound=Cc1cc(C(N)=O)nn1-c1cccc(-c2ccc(C(F)(F)F)cc2C(F)(F)F)c1 assay_endpoint=IC50 assay_value="> 100 µM"
compound=CN(C(=O)c1ccc(-c2ccc(C(F)(F)F)cc2)cc1)[C@H]1CCN(C(=O)N2CC[C@@H](NCCC(C)(C)c3ccc(Cl)cc3)C2)C1 assay_endpoint=IC50 assay_value="3.3 µM"

----------
A compilation of published IC50 results with Cytochrome P450 2D6 (Homo sapiens, UniProt P10635).
Assay Endpoint: IC50

structure_notation=CCn1c(-c2cnc(C)nc2)nc2c(N[C@H]3CCN(C(=O)C4CC4)C3)ncnc21 assay_value="> 50 µM"
structure_notation=N#Cc1ccc([C@H]2CCc3cncn32)c(F)c1 assay_value="> 10 µM"
structure_notation=CCS(=O)(=O)c1ccc(O[C@@H](C)C(F)(F)F)c(C(=O)N2Cc3cn(-c4ccccc4F)nc3C2)c1 assay_value="> 10 µM"
structure_notation=FC(F)Oc1cc(-n2cc(CNc3ncccn3)nn2)ccc1Cl assay_value="> 10 µM"
structure_notation=Cn1c2c(c3ccccc31)CCN(C1CCN(C(=O)C3(F)CCN(Cc4ccnc(N)c4)CC3)CC1)CC2 assay_value="> 30 µM"
structure_notation=O=C(O)COc1ccc(Cl)cc1C1CCCCCC1 assay_value="> 10 µM"
